Test: Selectivity index, ratio of CC50 for African green monkey Vero cells to EC50 for Chikungunya virus 899
Type: toxicity
Conditions: read-out: Ratio CC50/EC50
For each entry below, report its selectivity ratio value.
Numbers only.

[
  {
    "smiles": "Cc1ccc2nc(SCc3cc(=O)oc4cc(OS(=O)(=O)c5ccccc5)ccc34)[nH]c(=O)c2c1",
    "value measured": 2.2
  },
  {
    "smiles": "O=c1ccnc(SCc2cc(=O)oc3cc(OCc4ccc([N+](=O)[O-])cc4)ccc23)[nH]1",
    "value measured": 3
  },
  {
    "smiles": "O=c1cc(CSc2nc3ccccc3c(=O)[nH]2)c2ccc(OS(=O)(=O)c3ccccc3[N+](=O)[O-])cc2o1",
    "value measured": 8.8
  }
]

Report selectivity ratio for `O=c1cc(CSc2nc3ccccc3c(=O)[nH]2)c2ccc(OS(=O)(=O)c3ccc([N+](=O)[O-])cc3)cc2o1` please.
2.2

###

Test: Selectivity index, ratio of CC50 for African green monkey Vero cells to EC50 for Chikungunya virus 899
Format: toxicity
Settings: read-out: Ratio CC50/EC50
So basically, if selectivity ratio comes in under 3 it's TRUE, and if it's 3 or more it's FALSE.

Example entries and their recorded answers appear below.
[
  {
    "smiles": "Cc1ccc2nc(SCc3cc(=O)oc4cc(OS(=O)(=O)c5ccccc5[N+](=O)[O-])ccc34)[nH]c(=O)c2c1",
    "assigned category": "FALSE"
  },
  {
    "smiles": "O=C1CCN=C(SCc2cc(=O)oc3cc(OS(=O)(=O)c4ccccc4[N+](=O)[O-])ccc23)N1",
    "assigned category": "FALSE"
  },
  {
    "smiles": "Cc1ccc(S(=O)(=O)Oc2ccc3c(CSc4nc5ccc(C)cc5c(=O)[nH]4)cc(=O)oc3c2)cc1",
    "assigned category": "FALSE"
  }
]

Then this compound:
Quick check: selectivity ratio of `O=c1cc(CSc2nc3ccccc3c(=O)[nH]2)c2ccc(OS(=O)(=O)c3ccc(F)cc3)cc2o1` under 3?
TRUE

###

Answer each item with its documented IC50.
Tested on: Chikungunya virus
Experiment: Antiviral activity against Chikungunya virus LR2006 OPY1 infected in BHK cells measured at 14 hrs post infection by luciferase reporter gene assay
Assay type: functional, organism-based
One number for each entry, in µM.

[
  {
    "compound": "CCSc1ccc2c(c1)N(CCCN1CCN(C)CC1)c1ccccc1S2 [THIETHYLPERAZINE]",
    "value measured": 15
  },
  {
    "compound": "OCCN1CCN(CCCN2c3ccccc3Sc3ccc(Cl)cc32)CC1 [PERPHENAZINE]",
    "value measured": 25.1
  },
  {
    "compound": "CN(C)CCCN1c2ccccc2Sc2ccc(Cl)cc21 [CHLORPROMAZINE]",
    "value measured": 15.7
  },
  {
    "compound": "CCN(CC)C(C)CN1c2ccccc2Sc2ccccc21 (stereo not given) [ETHOPROPAZINE]",
    "value measured": 16
  }
]

We now examine a further compound.
What measured IC50 is associated with CN1CCC(CN2c3ccccc3Sc3ccccc32)C1 (stereo not given) [METHDILAZINE] on Chikungunya virus?
11.3

###

System: Chikungunya virus
Assay: Antiviral activity against Chikungunya virus infected in BHK-21 cells by RT-qPCR analysis
Format: functional, organism-based
Field: pEC50. Provide a value for each of the molecules that follow.
Numbers only, as −log10 of the molar value.

[
  {
    "molecule": "O=C(Nc1ccc([N+](=O)[O-])cc1Cl)c1cc(Cl)ccc1O [NICLOSAMIDE]",
    "observation type": "pEC50",
    "value measured": 6.02
  }
]

Next:
Requested read-out: pEC50. Entry: CC(=O)Oc1ccccc1C(=O)Nc1ncc([N+](=O)[O-])s1 [NITAZOXANIDE]
5.53
